subject of test: NAALAD-ase II (Homo sapiens, UniProt Q9Y3Q0)
Construct: expressed in transfected cells; host or cells: COS cells, transient, pcDNA-3
Sequence (Q9Y3Q0 whole entry): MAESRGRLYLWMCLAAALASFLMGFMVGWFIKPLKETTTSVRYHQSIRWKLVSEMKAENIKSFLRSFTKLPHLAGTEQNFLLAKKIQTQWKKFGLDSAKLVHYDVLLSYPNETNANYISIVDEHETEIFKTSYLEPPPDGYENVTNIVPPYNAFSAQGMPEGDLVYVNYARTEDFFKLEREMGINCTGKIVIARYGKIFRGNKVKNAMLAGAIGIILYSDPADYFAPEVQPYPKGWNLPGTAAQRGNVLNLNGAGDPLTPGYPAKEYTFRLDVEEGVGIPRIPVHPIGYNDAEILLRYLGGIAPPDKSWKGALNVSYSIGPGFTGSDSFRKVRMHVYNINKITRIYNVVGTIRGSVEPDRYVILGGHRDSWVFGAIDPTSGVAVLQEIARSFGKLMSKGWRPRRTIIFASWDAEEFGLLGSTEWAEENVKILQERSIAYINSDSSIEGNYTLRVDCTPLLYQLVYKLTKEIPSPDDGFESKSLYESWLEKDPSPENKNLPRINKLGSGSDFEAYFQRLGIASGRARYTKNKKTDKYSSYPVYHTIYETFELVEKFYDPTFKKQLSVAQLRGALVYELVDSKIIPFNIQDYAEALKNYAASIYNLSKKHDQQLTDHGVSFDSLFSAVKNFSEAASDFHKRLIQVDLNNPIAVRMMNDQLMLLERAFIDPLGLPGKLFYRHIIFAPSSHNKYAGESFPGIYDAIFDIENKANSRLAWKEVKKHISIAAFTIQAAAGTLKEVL
assay explanation: [3H]-NAAG hydrolysis assay, membranes of COS cells transiently transfected with NAALAD-ase II
Assay type: biochemical
condition: IC50, inhibition of NAALAD-ase II activity, 500 nM [3H]-NAAG, 37° C., 60 min, anion exchange column readout (FIG. 9C)

item smiles: N[C@@H](Cn1oc(=O)[nH]c1=O)C(=O)O
subject of test: NAALAD-ase II (Homo sapiens, UniProt Q9Y3Q0)
IC50 / µM: 17

---

subject of test: NAALAD-ase II (Homo sapiens, UniProt Q9Y3Q0)
Construct: expressed in transfected cells; host or cells: COS cells, transient, pcDNA-3
assay explanation: [3H]-NAAG hydrolysis assay, membranes of COS cells transiently transfected with NAALAD-ase II
Format: biochemical
condition: IC50 for NAALAD-ase II (discussion, rounded), recombinant preparation from COS cells, NAAG hydrolysis
value type: IC50

item smiles: N[C@@H](Cn1oc(=O)[nH]c1=O)C(=O)O
reported: ~10 µM
